# Test system: SK-OV-3
# Measurement Description: Growth inhibition of human SK-OV-3 cells at 10 uM relative to control
# Assay type: functional
# Test Conditions: read-out: GI

| Compound | inhibition of growth at 10 µM |
| --- | --- |
| C1=CN2C(=NC(/C=C/c3cccs3)=CC2c2cccs2)S1 (stereo not drawn) | < 10% |
| CCOC(=O)C1=CSC2=NC(/C=C/c3ccc(Cl)cc3)=CC(c3ccc(Cl)cc3)N12 (stereo not drawn) | < 10% |
| CC1=CSC2=NC(/C=C/c3cccs3)=CC(c3cccs3)N12 (stereo not drawn) | < 10% |

====

Quick reference: IC50 of the listed items.
# Target Of Assay: DNA
# Measurement Description: Displacement of methyl green from DNA (unknown origin) assessed as DNA intercalation after 24 hrs by colorimetric assay
# Type: nucleic-acid assay

| Compound | Unit Name | IC50 |
| --- | --- | --- |
| Clc1ccc(/C=C/C2=CC(c3ccc(Cl)cc3)N3C=CSC3=N2)cc1 (stereo not given) | µg/mL | 56.33 |
| CC1=CSC2=NC(/C=C/c3cccs3)=CC(c3cccs3)N12 (stereo not given) | µg/mL | 39.82 |
| CC1=CN2C(=NC(/C=C/c3cccs3)=CC2c2cccs2)S1 (stereo not given) | µg/mL | 76.15 |
| COc1cc(/C=C/C2=CC(c3cc(OC)c(OC)c(OC)c3)N3C=C(C)SC3=N2)cc(OC)c1OC (stereo not given) | µg/mL | 36.13 |
| CCOC(=O)C1=CSC2=NC(/C=C/c3ccc(Cl)cc3)=CC(c3ccc(Cl)cc3)N12 (stereo not given) | µg/mL | 79.28 |
